details: 313.15 K; 101 kPa
assay metric: log10 of viscosity (log10 of the value in mPa·s)
Please note: log10 values; quantity viscosity; unit mPa·s.

Looking up O=C1CCCCCO1 , I found its log10 of viscosity recorded as 0.58

In plain terms, CC(CC(C)(C)C)CP(=O)([O-])CC(C)CC(C)(C)C.CCCCCCCCCCCCCC[P+](CCCCCC)(CCCCCC)CCCCCC has a documented log10 of viscosity of 2.64

// field: log10 of viscosity; key: CC[N+](C)(CC)CCOC.O=S(=O)([N-]S(=O)(=O)C(F)(F)F)C(F)(F)F ; value = 1.72

Summary for this compound, C=CC#N : log10 of viscosity is -0.52

For record [2H]O[2H] the listed log10 of viscosity is -0.10

Ref: the CheMixHub viscosity set
